Data credit: patent US20070059799A1

Here, each record is paired with measured binding affinity ratio (IC50 of standard peptide / IC50 of test peptide) data.
# system: HLA-A*3101 (human)
# protocol-summary: inhibition of 125I-labelled standard peptide binding to purified HLA
Just the number, please, no unit attached.

| binder | observed |
| --- | --- |
| NSVVLSRK (modifications not checked) [HBV POL 738 peptide NSVVLSRK] | -0.0009 |
| PLTVNEKR (modifications not checked) [HBV POL 98 peptide PLTVNEKR] | -0.0009 |
| PLSYQHFR (modifications not checked) [HBV POL 2 peptide PLSYQHFR] | -0.0009 |

**Q:** Quickly give me recorded binding affinity ratio (IC50 of standard peptide / IC50 of test peptide) for PARDVLCLR (modifications not checked) [HBV X 11 peptide …]
**A:** 0.01

**Q:** Quickly give me recorded binding affinity ratio (IC50 of standard peptide / IC50 of test peptide) for PLEEELPR (modifications not checked) [HBV POL 20 peptide PLEEELPR]
**A:** -0.0009

**Q:** Quickly give me recorded binding affinity ratio (IC50 of standard peptide / IC50 of test peptide) for PLSYQHFRK (modifications not checked) [HBV POL 2 peptide …]
**A:** 0.0006

**Q:** Quickly give me recorded binding affinity ratio (IC50 of standard peptide / IC50 of test peptide) for NLNVSIPWTHK (modifications not checked) [HBV POL 45 peptide …]
**A:** -0.0012
